tested on: stable U20S reporter cells harboring Per2-dLuc; experiment: Per2 assay for evaluating the potency of test compounds (circadian luciferase reporter); type: cell-based; details: amplitude of Per2-dLuc luminescence vs log concentration
Overview of recorded pEC50 for various compounds
For clarity, pEC50 is expressed as the negative log10 of concentration in mol/L.

Example entries and their recorded answers appear below.
{"columns": ["compound", "pEC50"],
 "data": [
  ["O=C1N(CC(O)Cn2c3ccccc3c3ccccc32)CCCN1C1CCC1 (centres unmarked)", 6.14],
  ["O=C1C(F)CCCN1CC(O)Cn1c2ccccc2c2ccccc21 (centres unmarked)", 7.21],
  ["CC1CC(=O)N(CC(C)(O)Cn2c3ccc(F)cc3c3cc(F)ccc32)C1 (centres unmarked)", 5.97],
  ["C[C@@H]1CCN(C[C@H](O)Cn2c3ccccc3c3ccccc32)C1=O", 6.92],
  ["CC1(C)CC(=O)N(CC(O)Cn2c3ccc(F)cc3c3cc(F)ccc32)C1 (centres unmarked)", 6.08],
  ["CC(C)C1CCCN(CC(O)Cn2c3ccc(F)cc3c3cc(F)ccc32)C1=O (centres unmarked)", 7.10],
  ["CCN1CCCN(CC(O)Cn2c3ccccc3c3ccccc32)C1=O (centres unmarked)", 6.25],
  ["CC1(C)CCCN(CC(O)Cn2c3ccc(F)cc3c3cc(F)ccc32)C1=O (centres unmarked)", 6.33],
  ["O=C1N(CC(O)Cn2c3ccccc3c3ccccc32)CCCC1(F)F (centres unmarked)", 6.86],
  ["CC1CCC(=O)N(CC(O)Cn2c3ccccc3c3ccccc32)C1 (centres unmarked)", 6.43]
]}

Retrieve pEC50 measured for O=C1N(CC(O)Cn2c3ccc(F)cc3c3cc(F)ccc32)CCN1C1CCCC1 (centres unmarked) and print it.
6.21

Retrieve pEC50 measured for O=C1C(C2CCCCC2)CCCN1CC(O)Cn1c2ccc(F)cc2c2cc(F)ccc21 (centres unmarked) and print it.
6.42

Retrieve pEC50 measured for C[C@H]1CCC(=O)N(C[C@H](O)Cn2c3ccccc3c3ccccc32)C1 and print it.
6.13
